Catalogue of shrunken log2 fold change readings, one per entry.
# Test system: Escherichia coli TOP10;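 also: peptides expressed intracellularly from a pBAD plasmid library in pooled LB shake-flask culture, induced with 0.3% L-arabinose, DNA abundance read by NGS, three biological replicates, DESeq2 with apeglm shrinkage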
# Protocol Notes: shrunken log2 fold change of peptide-encoding DNA abundance (4.5 h post-induction vs induction); higher = less antimicrobial activity (less host growth inhibition)
# Assay Setup: time post-induction: 4.5 h; library: site-saturation at positions 5, 18, 19, 20

RRIRRRPPRLPRPRPRPSHYPRP	-0.131
RRIRQRPPRLPRPRPRPEQEPRP	-0.0311
RRIRTRPPRLPRPRPRPNPVPRP	-0.0168

Fill in the blank: the reported shrunken log2 fold change of RRIRARPPRLPRPRPRPFVRPRP is ____.
-0.0552

Entry under review: RRIRSRPPRLPRPRPRPVLHPRP . Reported shrunken log2 fold change?
-0.201

Item under review: RRIRARPPRLPRPRPRPLSIPRP . Reported shrunken log2 fold change?
-0.308

What shrunken log2 fold change value was documented for this sequence, RRIRMRPPRLPRPRPRPFREPRP ?
0.2

Return reported shrunken log2 fold change; argument: RRIRGRPPRLPRPRPRPSGWPRP
1.52

State the recorded shrunken log2 fold change for this entry: RRIRARPPRLPRPRPRPQYIPRP
-0.566

For RRIRPRPPRLPRPRPRPAMAPRP , what is its reported shrunken log2 fold change?
0.388

This collection of values is drawn from the supplement of paper PMC9112550.
